Cited source: ChEMBL document CHEMBL3988442

// reported Percent Effect per item
- Test system: Trypanosoma brucei
- EXPERIMENT DESCRIPTION: Trypanosoma brucei 72 hour study
- Type: functional, organism-based
- Parameters: scale not given: in the data most compounds retested in dose-response had high values
- STATED CONDITIONS: 30 µM; 30.03 µM
About 960 (1.5%) of roughly 66,000 compounds showed an effect of 50% or more. For the sample, strong results were picked, then their nearest neighbours and some compounds at random.
Note: unit % is implicit; provide only the numeric part.

// worked examples, Percent Effect included
MOLECULE	Percent Effect / %
O=C(Nc1cnn(CC(=O)N2CCCCO2)c1)c1ccsc1	102
O=C(CCn1cc(Cl)cn1)Nc1ccc2c(c1)OCCO2	-17.81
O=C(Nc1cnn(CC(=O)N2CCCO2)c1)c1ccccc1	-24.18

[in] Need Percent Effect, item COc1cccc2c1ccn2CCC(=O)NCCCC(=O)O
[out] 53.78

[in] Follow-up item: Cc1nsc(C(=O)NCCCc2ccccc2)n1
[out] -6.915

[in] Follow-up item: Cc1ccc(C)c(CN(CC(N)=O)C(C)C)c1
[out] -11.18

[in] Follow-up item: O=C(C1CCOCC1)N1C[C@H]2CCC[C@@]2(COc2ccccn2)C1.O=C(O)C(F)(F)F
[out] 15.32

====

- Tested on: Trypanosoma brucei
- EXPERIMENT DESCRIPTION: Trypanosoma brucei 72 hour study
- Type: functional, organism-based
- Design: scale not given: in the data most compounds retested in dose-response had high values
- STATED CONDITIONS: 30 µM; 30.03 µM
About 960 (1.5%) of roughly 66,000 compounds showed an effect of 50% or more. The sample as a whole holds a higher share of strong results than the screen did.
Response field class: enum, chosen by comparing Percent Effect against Low = under -20%, Mid = from -20% up to 40%, High = 40% and over

COMPOUND	ASSAY SYSTEM	CATEGORY LABEL
COCCN(C)C[C@@H]1CN(Cc2ccnc3ccccc23)C[C@@H]1CO	Trypanosoma brucei	Low

[in] Any idea which band Cc1cc(C2CCCN(Cc3nc(Cc4ccccc4)no3)C2)n[nH]1 (stereo not drawn) is in?
[out] Low

[in] Follow-up item: Cc1ccc(-c2ccnc(NC(c3ncccc3C)C3CC3)n2)c(C)n1 (stereo not drawn)
[out] Low

[in] Follow-up item: NC(=O)C1CN(C(=O)Nc2cc(Cl)cc(Cl)c2)CCO1 (stereo not drawn)
[out] High

[in] Follow-up item: CCOCC1CN(C(=O)c2cccn2C)Cc2cnn(CC3CC3)c21.O=C(O)C(F)(F)F (stereo not drawn)
[out] Mid

[in] Follow-up item: COCC(C)NCc1nc(-c2ccc(C)cc2)c(-c2ccccn2)[nH]1 (stereo not drawn)
[out] High

[in] Follow-up item: CCOCC1CN(S(=O)(=O)N(C)C)Cc2cnn(CC3CC3)c21.O=C(O)C(F)(F)F (stereo not drawn)
[out] Mid

[in] Follow-up item: CC(=O)N1CCN(S(=O)(=O)c2ccc(C)c(F)c2)CC1
[out] Mid

[in] Follow-up item: CCOCC1CN(S(=O)(=O)N(C)C)Cc2cnn(C)c21.O=C(O)C(F)(F)F (stereo not drawn)
[out] High

[in] Follow-up item: Cc1cc(NC(=O)N2CCOC(C(N)=O)C2)ccc1Br (stereo not drawn)
[out] Mid

[in] Follow-up item: CC(O)CN1CCC(CNCc2cccc(Br)c2)CC1 (stereo not drawn)
[out] Mid

[in] Follow-up item: COCC(C)NCc1ccc2[nH]c(C)c(C)c2c1 (stereo not drawn)
[out] Mid

[in] Follow-up item: CCOCC1CN(C(=O)c2cnccn2)Cc2cnn(CC3CC3)c21.O=C(O)C(F)(F)F (stereo not drawn)
[out] High

====

- Tested on: Trypanosoma brucei
- EXPERIMENT DESCRIPTION: Trypanosoma brucei 72 hour study
- Format: functional, organism-based
- Set-up: scale not given: in the data most compounds retested in dose-response had high values
- STATED CONDITIONS: 30.3 µM; […]
In all, about 66,000 compounds went through this assay and about 960 (1.5%) showed an effect of 50% or more. The entries come from a sample that favours strong results as a whole.
READOUT LABEL: Percent Effect (%)
Note: unit % is implicit; provide only the numeric part.

COMPOUND	UNIT INFO	OBSERVED
CC(C)[C@@H]1CN(CCOc2ccc(Cl)cc2)C[C@H]1NS(C)(=O)=O	%	10.13

[in] Need Percent Effect, item CC(=O)N1CCN(C)CC(COCc2ccccc2)C1 (configuration not stated)
[out] 18.55

[in] Follow-up item: CCCN1CCC(NC(=O)c2csc(C)c2-c2ccccc2)CC1
[out] -89.86

[in] Follow-up item: O=C(NCc1cccnc1)N1CCC2(CC(=O)N(c3ccsc3)C2)C1.O=C(O)C(F)(F)F (configuration not stated)
[out] -73.27

[in] Follow-up item: Cc1cccc(CN2Cc3ncn(C)c3C(COCC(=O)N(C)C)C2)n1.O=C(O)C(F)(F)F.O=C(O)C(F)(F)F.O=C(O)C(F)(F)F (configuration not stated)
[out] -54.51

[in] Follow-up item: CNc1ccc(C(=O)N(C)Cc2ccc3ccccc3n2)cn1
[out] 5.672

[in] Follow-up item: Fc1ccccc1CN(CCCn1ccnc1)CC1CCOC1.O=C(O)CC(O)(CC(=O)O)C(=O)O (configuration not stated)
[out] -0.3397

[in] Follow-up item: CC(C)C(=O)NCC(=O)N(C)C1CCCN(CCc2ccccc2)C1 (configuration not stated)
[out] 1.246

[in] Follow-up item: Cn1nc2c(cc1=O)CN(Cc1coc(-c3ccccc3)n1)CC2
[out] -6.992

[in] Follow-up item: Cn1nc2c(cc1=O)CN(Cc1coc(-c3ccc(F)cc3)n1)CC2
[out] 21.89

[in] Follow-up item: CNCc1ccc([C@@H]2CN(C(C)=O)C[C@H]2C(=O)N(C)C)cc1.Cl
[out] -5.387

[in] Follow-up item: CNCc1ccc([C@@H]2CN(C(C)=O)C[C@H]2C(N)=O)cc1.Cl
[out] -4.211

[in] Follow-up item: CN(Cc1ccccc1F)C(=O)Cn1cc(NC(=O)C(C)(C)C)cn1
[out] -0.06216

====

- System: Trypanosoma brucei
- EXPERIMENT DESCRIPTION: Trypanosoma brucei 72 hour study
- Assay type: functional, organism-based
- Set-up: scale not given: in the data most compounds retested in dose-response had high values
- STATED CONDITIONS: 30.3 µM; […]
Screen size: about 66,000 compounds; about 960 (1.5%) showed an effect of 50% or more. The entries come from a sample that favours strong results as a whole.
// reported Percent Effect per item
State the value with its unit after it.

MOLECULE	OBSERVED
CCc1n[nH]c(C2CN(C(=O)CCn3ccccc3=O)CCO2)n1 (stereo not given)	7.899%

[in] Need Percent Effect, item Cc1ccc(-c2nc(CNCC3CN(C)CCO3)co2)cc1 (stereo not given)
[out] 93.13%

[in] Follow-up item: CN1CCOC(CNCc2coc(-c3cccc(F)c3)n2)C1 (stereo not given)
[out] 41.18%

[in] Follow-up item: CN1[C@H](Cn2cccn2)C[C@@H]2CN(Cc3cccs3)CC[C@@H]21.O=C(O)C(F)(F)F.O=C(O)C(F)(F)F.O=C(O)C(F)(F)F
[out] -3.772%

[in] Follow-up item: c1ccc(C(CC2CN(Cc3c[nH]cn3)CCO2)c2ccccc2)cc1 (stereo not given)
[out] 18.17%

[in] Follow-up item: CC(=O)NC[C@]1(O)CCN(C(=O)c2ccc3c(c2)OCO3)C[C@H]1O
[out] -26.03%

[in] Follow-up item: CN1CCOC(CNC(=O)Cc2coc(-c3ccccc3)n2)C1 (stereo not given)
[out] -0.1289%

====

- System: Trypanosoma brucei
- EXPERIMENT DESCRIPTION: Trypanosoma brucei 72 hour study
- Type: functional, organism-based
- Set-up: scale not given: in the data most compounds retested in dose-response had high values
- STATED CONDITIONS: 30.3 µM; […]
The campaign covered roughly 66,000 compounds. About 960 (1.5%) showed an effect of 50% or more. Only a selection was taken, and strong results are over-represented in it overall.
READOUT LABEL: Percent Effect (%)
Note: unit % is implicit; provide only the numeric part.

// worked examples, Percent Effect included
STRUCTURE STRING	Percent Effect, %
Cc1cc(C[C@@H]2CCC[C@H]2NCc2c[nH]nc2-c2ccccc2)on1.O=C(O)CC(O)(CC(=O)O)C(=O)O	19.9
COCCCNc1c(-c2ccc(Cl)cc2)c(=O)c1=O	13.47
CC1(C)CC(N(Cc2ccccc2)Cc2ncc[nH]2)CC(C)(C)N1.O=C(O)CC(O)(CC(=O)O)C(=O)O	10.45

[in] For the record CC(C)Oc1cc(N2C[C@@H](C)O[C@@H](C)C2)nc(N)n1 , what value of Percent Effect is listed for Trypanosoma brucei?
[out] -11.25

[in] Follow-up item: O=C(C1CC1)N1Cc2[nH]nc(COCc3cccnc3)c2C1.O=C(O)C(F)(F)F.O=C(O)C(F)(F)F
[out] -50.32
